Substrate: p-NP-C4
cond: pH 7; 25 °C
metric: Km (µM)
One number for each entry, in µM.

Find the measured Km of unnamed (protein) MVLKQRANYLGFLIVFFTAFLVEAVPIKRQSNSTVDSLPPLIPSRTSAPSSSPSTTDPEAPAMSRNGPLPSDVETKYGMALNATSYPDSVVQAMSIDGGIRAATSQEINELTYYTTLSANSYCRTVIPGATWDCIHCDATEDLKIIKTWSTLIYDTNAMVARGDSEKTIYIVFRGSSSIRNWIADLTFVPVSYPPVSGTKVHKGFLDSYGEVQNELVATVLDQFKQYPSYKVAVTGHSLGGATALLCALDLYQREEGLSSSNLFLYTQGQPRVGDPAFANYVVSTGIPYRRTVNERDIVPHLPPAAFGFLHAGEEYWITDNSPETVQVCTSDLETSDCSNSIVPFTSVLDHLSYFGINTGLCT and report it.
2100

These data points were gathered from the PETadex activity labels (doi:10.1016/j.bbalip.2005.11.003).
